target: GlcNAc(b1-2)Man(a1-3)[GlcNAc(b1-2)Man(a1-6)]Man(b1-4)GlcNAc(b1-4)[Fuc(a1-6)]GlcNAc; assay: glycan array binding signal (z-score within array); higher = stronger binding; conditions: glycan notation: IUPAC condensed, linker removed
Only a selection was taken, and the strongest signals are over-represented in it overall.
endpoint_label: glycan array binding signal (z-score)

Prompt: Param item = XTP3-B-MRH2 (Homo sapiens), Q96DZ1 (protein) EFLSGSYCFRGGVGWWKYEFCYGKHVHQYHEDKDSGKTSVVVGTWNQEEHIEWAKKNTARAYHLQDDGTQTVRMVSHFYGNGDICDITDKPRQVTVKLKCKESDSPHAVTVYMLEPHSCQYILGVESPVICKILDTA ; retrieve measured glycan array binding signal (z-score).
Response: -0.201

Prompt: Param item = EULS2 M4 (Oryza sativa) (protein) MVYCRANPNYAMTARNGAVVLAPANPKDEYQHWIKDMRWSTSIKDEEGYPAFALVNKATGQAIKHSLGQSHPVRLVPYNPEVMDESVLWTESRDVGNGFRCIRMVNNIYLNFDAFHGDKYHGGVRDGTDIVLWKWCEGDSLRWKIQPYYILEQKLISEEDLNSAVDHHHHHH ; retrieve measured glycan array binding signal (z-score).
Response: -0.215

Prompt: Param item = LcH (Lens culinaris), P02870 (protein) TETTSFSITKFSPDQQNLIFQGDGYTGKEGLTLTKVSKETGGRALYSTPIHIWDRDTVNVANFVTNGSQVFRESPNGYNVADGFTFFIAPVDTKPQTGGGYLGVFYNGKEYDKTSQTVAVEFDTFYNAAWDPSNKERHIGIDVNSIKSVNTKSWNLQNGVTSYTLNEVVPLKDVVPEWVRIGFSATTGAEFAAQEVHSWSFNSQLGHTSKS ; retrieve measured glycan array binding signal (z-score).
Response: 6.22
